Test system: MS2 coat protein
Test: apparent KD of MS2 coat protein; designed switch direction (-1 OFF switch, 1 ON switch): -1; higher = weaker reporter binding
Details: Eterna round: R95; input ligand: FMN 200 uM
REPORTED PROPERTY: apparent KD of MS2 coat protein (nM)

• AUAGGGUCAGGAUAUUGCGCAGUGGACAUGAGGAUCACCCAUGUGAACUUCGUACCGGGCCAAGAAGGGACAGAAA [Tiersoaso] (puzzle: Exclusion 5) = 21.7
• UUUAGUUCAGGAUAUGUAGAUUUUAACAUGAGGAUCACCCAUGUAGAUCCUGAAUUAACUACAGAAGGGAACAUUG [Exclusion 5: 2:b] (puzzle: Exclusion 5) = 50.1
• AGUGGUAGUAUCCGAUCCUACAUGAGGAUCACCCAUGUAGCUAGACGUGCACGCGAUGCUCGUCAGACUACCAGAUG [salish99_TOv1_r3_040] (puzzle: Sensor v3, turn-off variant 1) = 16.5
• AAAUAACAAGCAAGAUCCUACAUGAGGAUCACCCAUGUGCUCGUCUUGUAAAGUACUAUCACGAAAGUGAUAGUACA [Sensor 3, v1 - 12] (puzzle: Sensor v3, turn-off variant 1) = 23.4
• UUUAAUUUUUUUUUUUUACAAGCUUUUUGCUCGUCUUAUACAUGAGGAUCACCCAUGUAAAUGGGAGGUAAAUUAUC [JMF 71] (puzzle: Sensor v3, turn-off variant 2) = 80.7
• GAGAGGUCAGGAUAUACGGAGAGAGAGAGUAGGUGAGGGUAACAUGAGGAUCACCCAUGUAGAAGGGACUAAGG [JR_Exclu2_Sub075] (puzzle: Exclusion 2) = 51.7
• UUUUUAGUGCUUUUUAAGUACAUGAGGAUCACCCAUGUACUUGUCUGGUGGUCCGGACAAGCUUUUUGCUCGUCUAC [Sensor v3 - turn-off variant 1 - 2] (puzzle: Sensor v3, turn-off variant 1) = 49.5
• AAAAAGUGAGGAUAUACAUAAGGACCCGGGAGGGAAAUAAAACAUGAGGAUCACCCAUGUAGAAGGCACAAAAA [Exclss2-I] (puzzle: Exclusion 2) = 20.2
• CCGAAUAUGUAGGAUAUCGUAUCGGAAACGAUACGAGAAGGGCAAACAUGAGGAUCACCCAUGUUCCUUAACGG [Fiskers Ex 6 - 13] (puzzle: Exclusion 6) = 16.3
• AGAUGGCGAGGAUAUACAUGAGGAUCACCCAUGUGAGAAGAAAGAGUGAGGAAGAAAAGUAGAAGGCGCUGUCA [Mat - Exclusion 3 - Mod of Salish D19] (puzzle: Exclusion 3) = 209
• UAGUGACAUGAGGAUCACCCAUGUGAGGAUAUAGUGAGAGAAAAAAGGAGAGAGAGGACUAGAAGGCACAGUGA [JR_Exclu1_Sub032] (puzzle: Exclusion 1) = 76.6
